Attribution: PubChem BioAssay

Reported viability decrease (inhibition) values for the following compounds.
assay: reduced SW480 viability measured with CellTiter-Glo, NPC library, primary (AID 1117343); details: CellTiter-Glo luminescence; at 20 µM (top of the series)
Readout: viability decrease (inhibition) (%)

> print(dat)
                                   compound  unit.annotation  recorded.number
1          Cc1oncc1C(=O)Nc1ccc(C(F)(F)F)cc1                %             39.1
2  CCCN(CCC)C(=O)C(CCC(=O)O)NC(=O)c1ccccc1 (stereo unspecified)                %             -0.1
3    O=c1[nH]cnc2c1ncn2[C@H]1CC[C@@H](CO)O1                %             -7.8
4          COc1c2occc2c(OC)c2c(=O)cc(C)oc12                %             21.5
5  NC(=NCCCCCCN=C(N)/N=C(\N)Nc1ccc(Cl)cc1)/N=C(\N)Nc1ccc(Cl)cc1                %              166
6                        CC(=O)Oc1cccc(O)c1                %             29.4

---

assay: compounds altering circadian rhythm period length – cell-based, LOPAC library, luminescence reporter (AID 2774); conditions: circadian reporter cells, at 7 µM, actives lie on both sides;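 further: values are relative to mean of DMSO wells on each plate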
Calls of active or inactive are those of the source. How the calls were made is not given here.
Readout: period change

> print(dat)
                                    molecule        readout               result
 1  CNC1(C)C2CCC(C2)C1(C)C (configuration not stated)  period change    0.19 h (inactive)
 2  C[C@]12CC[C@@H]3c4ccc(O)cc4CC[C@H]3[C@@H]1CCC2=O  period change  -0.125 h (inactive)
 3        COc1cc(-c2ccc(=O)[nH]n2)ccc1OC(F)F  period change    -0.1 h (inactive)
 4                       CN1C(C)(C)CCCC1(C)C  period change   -0.07 h (inactive)
 5            Cc1[nH]c(=O)c(C#N)cc1-c1ccncc1  period change  -0.005 h (inactive)
 6                Cn1cnc2c1c(=O)[nH]c(=O)n2C  period change  -0.055 h (inactive)
 7    COC(=O)Nc1nc2ccc(C(=O)c3cccs3)cc2[nH]1  period change   -0.58 h (inactive)
 8                      CC(C)NNC(=O)c1ccncc1  period change    0.33 h (inactive)
 9        Cc1cc(C(C)(C)C)c(O)c(C)c1CC1=NCCN1  period change   -0.09 h (inactive)
10  COc1ccc(C2CNC(=O)C2)cc1OC1CCCC1 (configuration not stated)  period change  -0.065 h (inactive)
11  O=C1N(c2ccccc2)c2ccccc2C1(Cc1ccncc1)Cc1ccncc1  period change    0.25 h (inactive)
12  CC(=O)[C@]1(O)Cc2c(O)c3c(c(O)c2[C@@H](O[C@H]2C[C@H](N)[C@H](O)[C@H](C)O2)C1)C(=O)c1ccccc1C3=O  period change    -1.6 h (inactive)

---

target: 6-phosphogluconate dehydrogenase, decarboxylating (Homo sapiens); experiment: inhibition of human phosphogluconate dehydrogenase – biochemical, recombinant enzyme, NADPH absorbance, primary screen (AID 1159550); conditions: recombinant 6PGD, NADPH absorbance 341 nm; at 10 µM; stronger effect = higher value
Reported inhibition values for the following compounds.
Readout: inhibition (%)

> print(dat)
                                    compound     readout  recorded.number
 1  C[C@]12C=CC(=O)C=C1CC[C@H]1[C@@H]3C[C@@H](O)[C@](O)(C(=O)CO)[C@@]3(C)C[C@H](O)[C@@]12F  inhibition            -17.6
 2           C[N+]1(CCCCC[N+]2(C)CCCC2)CCCC1  inhibition             10.2
 3                                      NCCS  inhibition              -14
 4  NC(=NCCCCCCN=C(N)/N=C(\N)Nc1ccc(Cl)cc1)/N=C(\N)Nc1ccc(Cl)cc1  inhibition            -5.13
 5     Cc1cc(CC(=O)O)n(C)c1C(=O)c1ccc(Cl)cc1  inhibition            -4.85
 6  Nc1c2c(nc3ccccc13)CCCC2O (configuration not stated)  inhibition             7.08
 7    O=C1CCc2cc(OCCCCc3nnnn3C3CCCCC3)ccc2N1  inhibition             1.01
 8          OC(CCN1CCCCC1)(c1ccccc1)c1ccccc1  inhibition             12.5
 9  Oc1cc(O)c2c(c1)O[C@H](c1ccc(O)c(O)c1)[C@H](O)C2  inhibition            -5.84
10  NC(=O)NC1NC(=O)NC1=O (configuration not stated)  inhibition             4.15
11              Nc1ccc(S(=O)(=O)Nc2nccs2)cc1  inhibition             2.97
12  CSc1ccc2c(c1)C(N1CCN(C)CC1)Cc1ccccc1S2 (configuration not stated)  inhibition            -11.1

---

experiment: antimalarial activity against Dd2 strain (AID 2302);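 further: 0% = DMSO untreated growth and 100% = chloroquine plus artemisinin killed control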; conditions: P. falciparum Dd2 in RBCs, LDH growth readout, 72 h; at 2 µM
Activity calls are given as the source filed them.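 How the source made its calls: active means growth inhibition above 50% at the single 2 µM test dose, taken to imply half-maximal potency below 2 µM; inactive means the rest.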
Outcome codes: 1.0 (active), 0.0 (inactive)

> print(dat)
                                        mol  category.label
1          Cc1nc(N)nc(N)c1-c1ccc(Cl)c(Cl)c1             0.0
2            CCCCc1ccc2nc(NC(=O)OC)[nH]c2c1             0.0
3    CCN(CC)Cc1cc(Nc2ccnc3cc(Cl)ccc23)ccc1O             1.0
4  O=C(Nc1cccc(C2=NCCN2)c1)Nc1cccc(C2=NCCN2)c1             1.0

---

assay: HCT116 colon cancer cell growth inhibition, primary screen, CellTiter-Glo luminescence, NPC library (AID 1117342); conditions: at 20 µM (top of the series)
The source made the active and inactive calls.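 The calls were made as follows: active = compounds that lower survival of HCT116 colon cancer cells in the luminescence readout, no numeric limit stated; inactive = the rest.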
Outcome codes: active, inactive

> print(dat)
                                    molecule  category.label
 1              C[C@](N)(Cc1ccc(O)cc1)C(=O)O        inactive
 2  CN(CCOc1ccc(NS(C)(=O)=O)cc1)CCc1ccc(NS(C)(=O)=O)cc1        inactive
 3  CCCCC1C(=O)N(c2ccccc2)N(c2ccc(O)cc2)C1=O (stereo unspecified)          active
 4          OC(CCN1CCCCC1)(c1ccccc1)c1ccccc1        inactive
 5                     CCCCOC(=O)c1ccc(N)cc1        inactive
 6     CNS(=O)(=O)Cc1ccc2[nH]cc(CCN(C)C)c2c1        inactive
 7  CO[C@@]1(NC(=O)C(C(=O)O)c2ccc(O)cc2)C(=O)N2C(C(=O)O)=C(CSc3nnnn3C)CO[C@@H]21 (stereo partly specified)        inactive
 8  Cc1ccsc1C(=CCCN1CCC[C@@H](C(=O)O)C1)c1sccc1C        inactive
 9  CC(N)C(=O)OC(C)(C)Cc1ccc(Cl)cc1 (stereo unspecified)          active
10                Cn1c(=O)c2c(ncn2C)n(C)c1=O        inactive
11                     Nc1c2ccccc2nc2ccccc12          active
12  CCN(CC)CCOC(=O)C(c1ccccc1)C1CCCCC1 (stereo unspecified)        inactive
13            Cn1c([N+](=O)[O-])cnc1COC(N)=O        inactive
14               CCCCOc1ccc(OCCCN2CCOCC2)cc1        inactive
15              CN(C)CCCN1c2ccccc2Sc2ccccc21        inactive
16  CS(=O)(=O)Nc1ccc([N+](=O)[O-])cc1Oc1ccccc1        inactive
17  Cn1c(=O)c2c(ncn2CC(O)CO)n(C)c1=O (stereo unspecified)        inactive
18                      CCOc1ccc(NC(C)=O)cc1        inactive
19     CCN(CC)CCNC(=O)c1cc(S(C)(=O)=O)ccc1OC        inactive
20          Cc1nc(N)nc(N)c1-c1ccc(Cl)c(Cl)c1          active
21  C[C@H]1c2cccc(O)c2C(O)=C2C(=O)[C@]3(O)C(O)=C(C(N)=O)C(=O)[C@@H](N(C)C)[C@@H]3[C@@H](O)[C@@H]21          active
22                    CNC[C@H](O)c1cccc(O)c1        inactive
23                  O=C(O)c1ccccc1OP(=O)(O)O        inactive
24                           O=C(O)c1ccccc1O        inactive
25      C=CC(N)CCC(=O)O (stereo unspecified)        inactive
26  O=C1OC(c2ccc(O)cc2)(c2ccc(O)cc2)c2ccccc21        inactive
